Test: Pharmacokinetics in patients
Type: in vivo, human
Conditions: human, plasma, oral
ENDPOINT_NAME: Vd/F (L)
Reply numerically in L, unit not repeated.

Task: Name the reported Vd/F value associated with the compound `Cc1cc(Nc2cc(CN3CCOCC3)c3nc(C)c(Cc4ccc(Cl)cc4F)n3n2)n[nH]1`
Result: 682

====

Assay: Pharmacokinetics in patients
Type: in vivo, human
Conditions: human, plasma, oral
ENDPOINT_NAME: half-life

Task: Name the reported half-life value associated with the compound `Cc1cc(Nc2cc(CN3CCOCC3)c3nc(C)c(Cc4ccc(Cl)cc4F)n3n2)n[nH]1`
Result: ~6 h

Ref: paper PMC8207330
